method-description: NCI Yeast Anticancer Drug Screen. Data for the mlh1 rad18 strain (AID 175)
experimental-conditions: S. cerevisiae mlh1 rad18 strain growth inhibition; at 50.0 µM; stronger effect = higher value
Compounds without any hit were thinned out: in the full panel of roughly 79,000, 15% have a hit.
quantity-measured: growth inhibition (%)
// return numeric value only (unit: %, not printed)

Using the record for CCOC(=O)C(C(C)=O)C(c1ccc(N(C)C)cc1)c1ccc(N(C)C)cc1 (stereo unspecified) , report its growth inhibition.
-3.4

Others:
Entry OC1C(OCc2ccccc2)OC(COCc2ccccc2)C(OC2OC(COCc3ccccc3)C(OCc3ccccc3)C(OCc3ccccc3)C2OCc2ccccc2)C1OCc1ccccc1 (stereo unspecified) has what growth inhibition?
-3.6

Looking for the measured growth inhibition of `Oc1c(CN2CCOCC2)cc(CN2CCOCC2)cc1CN1CCOCC1` , can you help?
6.55

* * *

method-description: NCI Yeast Anticancer Drug Screen. Data for the bub3 strain (AID 167)
experimental-conditions: S. cerevisiae bub3 mutant strain, at 50.0 µM, stronger effect = higher value
This is part of a sample that, as a whole, favours compounds with a hit. Of some 79,000 tested, about 15% had one in any assay.
quantity-measured: growth inhibition (%)
Dear colleague, please return just the value in %, with no unit written.

Field: example entries. Status: answers known.
Which value of growth inhibition has been reported for `Cc1ccc(OC(=O)c2cccs2)cc1` in the records?
22

Consider the molecule `N#CC(C#N)=C/C=C/C=C/c1c(Cl)cccc1Cl` and give its measured growth inhibition.
-6.8

# query: growth inhibition of entry O=[N+]([O-])c1ccc(N/N=C2\CCC3CC23)c([N+](=O)[O-])c1 (stereo not given)
-0.55

What measured growth inhibition goes with `c1ccc(-c2cc[n+]3c4c2ccc2c(-c5ccccc5)cc[n+](c24)CC3)cc1` ?
25.8

Can you share its growth inhibition? I mean this molecule: Cc1ccc(S(=O)(=O)SC(SCC(=O)c2ccc(Br)cc2)C(=O)c2ccc(Br)cc2)cc1 (stereo not given)
-0.15

Given O=c1[nH]cnc2c(C3OC(CO)C(O)C3O)[nH]nc12 (stereo not given) , state its recorded growth inhibition.
-16.8

Continuing:
// growth inhibition lookup, key: `O=C(C[n+]1ccccc1)N/N=C(/CCC(=O)N(Cc1ccccc1)Cc1ccccc1)CC(=O)c1ccccc1`
-26.6

Please look up its growth inhibition: `CC1(C)CC(=NNC(N)=S)CC(C)(C)N1`
-16.2

Quick check: growth inhibition of `C=CNC(=O)NC(=O)CSc1nnc(-c2ccccc2NC(=O)C(F)(F)F)c(=O)[nH]1` ?
30.9

Field request: growth inhibition | item: OCC1CC(O)CN2CCc3c([nH]c4ccccc34)C2C1 (stereo not given)
0.1

* * *

method-description: NCI Yeast Anticancer Drug Screen. Data for the rad50 strain (AID 155);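 note: 0% = growth of vehicle-only cultures of the same strain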
experimental-conditions: S. cerevisiae rad50 strain growth inhibition; at 50.0 µM; stronger effect = higher value
This is part of a sample that, as a whole, favours compounds with a hit. Of some 79,000 tested, about 15% had one in any assay. Activity calls are given as the source filed them. No stated cut-off is given here; in the data, active means growth inhibition above about 70%; inactive means the rest.
quantity-measured: growth inhibition

Fill blank: measured growth inhibition of the compound CCNC(CC(N)=O)C(=O)O (stereo not given) is ____.
-22.1% (inactive)

***
Would you mind telling me what growth inhibition value was observed for CCCCCCCCCCCCCCCCCC[N+](CCCC)(CCCC)CCCCCCCCCCCCCCCCCC (tested in a mixture with another compound) ?
3.45% (inactive)

Query: growth inhibition; subject: COC(=N)/C(C#N)=N/C1OCC(O)C(O)C1O (stereo not given)
5.65% (inactive)

Give its growth inhibition value. Item: `CCN(CC)c1ccc(/C=C(\C#N)C(N)=S)cc1`
35.4% (inactive)

Give the measured growth inhibition of `O=C(O)c1c(Br)c(Br)c(Br)c(Br)c1C(=O)Nc1ccccc1C(F)(F)F` .
-8.55% (inactive)
